# TEST METHOD NOTES: folding stability dG unfold from trypsin proteolysis; higher = more stable
Below, each entry is listed alongside its reported folding stability dG unfold.
Kindly answer with a numeric value in kcal/mol, unit omitted.

Requested field: folding stability dG unfold. Item: SAGGSAMITLEVEVPPGNAEEAAEAVAEELAEKLGVEVTIEKVEVEYDPVTNLTRVPVEIKINPPLSAGGSA [r15_70_JUSTAS]
1.18

Requested field: folding stability dG unfold. Item: SAGPYYVRITVSIYYPGNGAPHQHTIPIKGKTLDDIKDEIRDEIRDHGMKMDPGDEVEIQITDIEVYPGSAG [r5_230_TrROS]
0.905

Requested field: folding stability dG unfold. Item: SAGGSADIARKIAKWLAEMYGIEEIKVKDIDPNGYIKVEIKMRMYDDGEPVEHKMDIEIPIPPGDLSAGGSA [r15_646_TrROS]
1.3

Requested field: folding stability dG unfold. Item: SAGGKTITIKVKLENGEEKTIEVKVDEVKIEKKNGKLVITFKDGKKITIPLDKIEDMSEDEIKKLLEKSAGG [r13_925_TrROS_Hall]
2.72

Requested field: folding stability dG unfold. Item: SAGGGSATLVGIFPEKGYLVVLTITTDGDDFSIGELKVTFEPLDDDSVKATFYTPSGQKHDAIGLPVASAGG [r13_515_TrMRF]
1.54

Requested field: folding stability dG unfold. Item: SMSEELKKEIEAFLKEKGASIDFKTDPSTGKITITVTIPGKGTTTTITLTFPPDNPEEIKEKIKELIEKGSA [r9_42_JUSTAS]
4.88

Requested field: folding stability dG unfold. Item: SAGGRIVEAAKEAGLDGVDLKEIRPLPDGGVEIRILPPPGMPEEAAAEAAERIERALREEFPDTRIDTESAG [r5_101_TrMRF]
-0.835
